FYI, the data here is from patent US20240294466A1.

# protocolText: Dynamic vapour sorption (DVS) moisture uptake, method 3
# Type: physicochemical
# assayContext: heat treatment: None
Attribute: Moisture absorption at 65% RH
// return numeric value only (unit: %, not printed)

[[record]]
compound = "O=C([O-])CCCCCCCNC(=O)c1ccccc1O.[Na+] [Batch 7]"
result = 2.06


From here, focus on the item given below.
IN: Identify the reported Moisture absorption at 65% RH for the following entry. O=C([O-])CCCCCCCNC(=O)c1ccccc1O.[Na+] [Batch 9]
OUT: 1.29

###

# protocolText: XRPD with moisture chamber: relative humidity for onset of conversion of form A to trihydrate form F, method 2
# Type: physicochemical
# assayContext: heat treatment: None; increasing RH at ambient conditions
quantityKind: Onset of trihydrate conversion (form A to form F) (% RH)
// return numeric value only (unit: % RH, not printed)

Please review the entries below; each comes with its answer.
[[record]]
molecule = "O=C([O-])CCCCCCCNC(=O)c1ccccc1O.[Na+] [Batch 9]"
result = 80

[[record]]
molecule = "O=C([O-])CCCCCCCNC(=O)c1ccccc1O.[Na+] [Batch 3]"
result = 75

[[record]]
molecule = "O=C([O-])CCCCCCCNC(=O)c1ccccc1O.[Na+] [Batch 8]"
result = 70

[[record]]
molecule = "O=C([O-])CCCCCCCNC(=O)c1ccccc1O.[Na+] [Batch 6]"
result = 75

[[record]]
molecule = "O=C([O-])CCCCCCCNC(=O)c1ccccc1O.[Na+] [Batch 7]"
result = 70


IN: Identify the reported Onset of trihydrate conversion (form A to form F) for the following entry. O=C([O-])CCCCCCCNC(=O)c1ccccc1O.[Na+] [Batch 2]
OUT: 70

###

# protocolText: XRPD FWHM of the peak at 8.7±0.2° 2θ (degree of crystal imperfections), method 1
# Type: physicochemical
# assayContext: before heat treatment
Attribute: FWHM (automatic mode), XRPD peak around 8.7 ± 0.2° 2θ, Before
// return numeric value only (unit: ° 2θ, not printed)

[[record]]
molecule = "O=C([O-])CCCCCCCNC(=O)c1ccccc1O.[Na+] [Batch 1]"
result = 1.08

[[record]]
molecule = "O=C([O-])CCCCCCCNC(=O)c1ccccc1O.[Na+] [Batch 5]"
result = 0.97

[[record]]
molecule = "O=C([O-])CCCCCCCNC(=O)c1ccccc1O.[Na+] [Batch 2]"
result = 1.21


From here, focus on the item given below.
IN: Identify the reported FWHM (automatic mode), XRPD peak around 8.7 ± 0.2° 2θ, Before for the following entry. O=C([O-])CCCCCCCNC(=O)c1ccccc1O.[Na+] [Batch 4]
OUT: 0.79

###

# protocolText: XRPD FWHM of the peak at 8.7±0.2° 2θ (degree of crystal imperfections), method 1
# Type: physicochemical
# assayContext: heat treatment: None
I'd appreciate it if you marked entries yes (1) when FWHM (manual mode) is lower than 0.8 °2θ and no (0) when it is not.

The examples below pair each entry with its known result.
[[record]]
molecule = "O=C([O-])CCCCCCCNC(=O)c1ccccc1O.[Na+] [Batch 9]"
classname = "yes (1)"

[[record]]
molecule = "O=C([O-])CCCCCCCNC(=O)c1ccccc1O.[Na+] [Batch 7]"
classname = "yes (1)"


IN: Bench note: check whether O=C([O-])CCCCCCCNC(=O)c1ccccc1O.[Na+] [Batch 2] shows FWHM (manual mode) below 0.8 °2θ
OUT: no (0)

IN: Bench note: check whether O=C([O-])CCCCCCCNC(=O)c1ccccc1O.[Na+] [Batch 3] shows FWHM (manual mode) below 0.8 °2θ
OUT: yes (1)

IN: Bench note: check whether O=C([O-])CCCCCCCNC(=O)c1ccccc1O.[Na+] [Batch 6] shows FWHM (manual mode) below 0.8 °2θ
OUT: yes (1)
